test system: ABL1-nonphosphorylated; settings: concentration: 1 μM, replicates: in singlicate; n = 1;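 also: KINOMEscan kinase panel screen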
Returns one of 1 or -1; 1 when %Inh is >= 20%.

The following molecules have reported results that may help.
Cc1cccc(-c2nc(Nc3ccc4[nH]nnc4c3)c3ccccc3n2)n1    1
Nc1nc(-c2ccc3c(N)n[nH]c3c2)cc(N2CCC[C@@H](C(=O)Nc3ccccc3)C2)n1.O=C(O)C(F)(F)F.O=C(O)C(F)(F)F    -1
CNc1nccc(-c2c(-c3ccc(F)cc3)ncn2CCCN2CCOCC2)n1    1
Clc1cc(Nc2ncnc3cc[nH]c23)ccc1OCc1ccccn1    1
O=C(c1ccc(-c2cc(-c3c[nH]nc3-c3ccccn3)ccn2)cc1)N1CCCC1    1

Query :: Kindly determine if %Inh recorded for "CSc1nn2c(=O)cc(N3CCOCC3)nc2n1Cc1cccc(Cl)c1Cl" is above or exactly 20%.
Result :: -1

Query :: What about "Cl.Fc1ccccc1COc1ccc(Nc2ncnc3ccc(-c4nnc(C(F)(F)F)o4)cc23)cc1Cl" ?
Result :: -1

Query :: What about "CCc1nc(-c2cccc(C)c2)c(-c2ccnc(NC(=O)c3ccccc3)c2)s1" ?
Result :: 1

###

Would you mind telling me the reported %Inh of each entry?
test system: GRK7; settings: concentration: 1 μM, replicates: in singlicate; n = 1
One number for each entry, in %.

Worked examples, 4 molecules total:
Cl.O=S(=O)(c1cccc(F)c1)c1ccc(Nc2ncnc3cc(Br)sc23)cc1Cl    0
FC(F)(F)c1ccc(-c2cc(-c3c[nH]nc3-c3ccccn3)ccn2)cc1    4
Fc1ccc(-c2ncn(CCCNCc3ccccc3)c2-c2ccncc2)cc1    5
Clc1cc(Nc2ncnc3cc[nH]c23)ccc1OCc1ccccn1    14

Here are 4 molecules. What values of %Inh were reported for them?
1. Fc1cccc(COc2ccc(Nc3ncnc4nn5ccccc5c34)cc2Cl)c1
2. N#Cc1ccc(Oc2ccc(Nc3ncnc4cc[nH]c34)cc2Cl)cc1
3. CC(C)(C)OC(=O)NC1CCCN(c2cc(-c3ccc4c(N)n[nH]c4c3)nc(N)n2)C1 (stereo not drawn)
4. OCCOCCn1ccc2ncnc(Nc3ccc(Oc4cccc(Cl)c4)c(Cl)c3)c21

Result ::
[0, 14, 0, 0]

Query :: Request the reported %Inh associated with "O=C(NCCCN1CCCC1=O)c1cnc(NCc2cc(Cl)ccc2Cl)nc1NC1CCNCC1"
Result :: 68

###

test system: MKNK1; settings: concentration: 1 μM, replicates: in singlicate; n = 1
measurement.type: %Inh (%)
Give bare numbers, in %.

Worked examples, 4 compounds total:
CC(C)(C)OC(=O)NC1CCCN(c2cc(-c3ccc4c(N)n[nH]c4c3)nc(N)n2)C1 (centres unmarked)    12
Nc1nc(-c2ccc3c(N)n[nH]c3c2)cc(N2CCCCC2)n1    0
Clc1cccc(-c2nc(Nc3ccncc3)c3ccccc3n2)c1    18
CNc1nccc(-c2c(-c3ccc(F)cc3)ncn2C2CCN(C)CC2)n1    0

Query :: Request the reported %Inh associated with COc1ccc(Nc2nccc(N3CCC(NC(=O)c4cccc(NC(C)=O)c4)C3)n2)cc1 (centres unmarked)
Result :: 0

###

Would you mind telling me the reported %Inh of each entry?
system: RIOK2; settings: concentration: 1 μM, replicates: in singlicate; n = 1
Numbers only, in %.

Worked examples, 4 compounds total:
CN1c2ccc(-c3ccc(C(=O)NCCO)cc3)cc2-c2[nH]ncc2S1(=O)=O    22
COc1ccc(Nc2nccc(N3CCC(NC(=O)c4cccc(NC(C)=O)c4)C3)n2)cc1 (centres unmarked) [GSK1379732]    0
N#Cc1ccc(Oc2ccc(Nc3ncnc4cc[nH]c34)cc2Cl)cc1    8
CCn1c(-c2ccncc2)nc2cnccc21 [SB-735216]    20

// next item, %Inh requested
Query :: Request the reported %Inh associated with "O=C(CCO)NCCn1ccc2ncnc(Nc3ccc(Oc4cccc(C(F)(F)F)c4)c(Cl)c3)c21"
Result :: 0
